// provenance: patent EP4332093A1

- assay-summary: Pharmacokinetic assay in Balb/c mice (plasma and brain tissue)
- Type: in vivo
- measurement-context: male, mouse, po, Plasma, p.o. 5 mg/kg, read-out: Peak time tmax
readout-name: Tmax (min)

[P] O=C(N[C@H]1C[C@H](CCN2CCN(c3cccc(Cl)c3Cl)CC2)C1)C1(O)CC1 [Example 6A]
[Q] O=C(N[C@H]1C[C@H](CCN2CCN(c3cccc(Cl)c3Cl)CC2)C1)c1nccs1 [Example 7A]
# compare Tmax for P vs Q ; return the one with the smaller value Output the label that corresponds to your choice.
P

====

- measurement-target: 5-HT2A receptor (Homo sapiens, UniProt P28223)
- Sequence (P28223 whole entry): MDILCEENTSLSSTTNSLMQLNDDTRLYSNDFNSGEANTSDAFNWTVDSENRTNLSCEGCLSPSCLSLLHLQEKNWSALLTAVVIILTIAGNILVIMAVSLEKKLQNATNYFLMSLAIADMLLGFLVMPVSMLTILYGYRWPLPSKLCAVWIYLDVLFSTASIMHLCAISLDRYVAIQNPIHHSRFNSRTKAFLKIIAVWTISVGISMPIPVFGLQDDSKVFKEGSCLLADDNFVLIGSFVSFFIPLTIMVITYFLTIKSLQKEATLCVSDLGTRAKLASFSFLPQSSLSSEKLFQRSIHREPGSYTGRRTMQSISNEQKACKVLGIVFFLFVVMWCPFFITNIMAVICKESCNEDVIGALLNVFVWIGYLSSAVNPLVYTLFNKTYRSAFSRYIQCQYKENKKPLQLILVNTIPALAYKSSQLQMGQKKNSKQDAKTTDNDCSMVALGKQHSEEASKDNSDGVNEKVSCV
- assay-summary: Calcium ion mobility in cells stably expressing 5-HT2A receptors (Flp-In-CHO-5HT2A, FLIPR)
- Type: cell-based
- Design: expressed in transfected cells
- measurement-context: Flp-In-CHO-5HT2A stable pool, 5HT stimulation
readout-name: IC50 (nM)

O=C(NC1CC(CCN2CCN(c3cccc(Cl)c3Cl)CC2)C1)c1nccs1 (centres unmarked)
6.44
O=C(N[C@H]1C[C@@H](CCN2CCN(c3cccc(Cl)c3Cl)CC2)C1)C1(O)CC1
39
O=C(NC1CC(CCN2CCN(c3cccc(Cl)c3Cl)CC2)C1)c1ccon1 (centres unmarked)
8.92

[I] N#CC1(C(=O)NC2CC(CCN3CCN(c4cccc(Cl)c4Cl)CC3)C2)CC1 (centres unmarked)
[II] Cc1ccc(C(=O)NC2CC(CCN3CCN(c4cccc(Cl)c4Cl)CC3)C2)o1 (centres unmarked)
Which value of IC50 is numerically greater: that of I or that of II ? Output the label that corresponds to your choice.
I
